Value source: patent US8088930B2

- SYSTEM TESTED: FXR ligand binding domain (GST-FXR LBD fusion protein, human FXR aa 193-473) (Homo sapiens, UniProt Q96RI1)
- Construct: fused on or other part: Glutathione-S-transferase (GST) fused N-terminally to the FXR LBD, used to capture the protein on glutathione SPA beads
- Sequence (Q96RI1 211-486 limits assumed): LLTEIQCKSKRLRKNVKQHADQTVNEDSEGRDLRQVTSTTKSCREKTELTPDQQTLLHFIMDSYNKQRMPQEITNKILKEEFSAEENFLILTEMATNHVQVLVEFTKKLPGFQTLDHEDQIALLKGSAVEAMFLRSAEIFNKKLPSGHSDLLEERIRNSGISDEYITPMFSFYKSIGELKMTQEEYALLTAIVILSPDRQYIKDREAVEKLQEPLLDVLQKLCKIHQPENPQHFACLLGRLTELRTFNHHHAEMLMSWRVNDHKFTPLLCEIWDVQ
- MEASUREMENT PROTOCOL: Radioligand binding assay (scintillation proximity, radioligand displacement)
- ASSAY CONDITIONS: 40 nM GST-FXR LBD on SPA beads, test compound 6×10^−9 M to 2.5×10^−5 M, read-out: h-IC50 Binding
pIC50: −log10 of the molar value.
MEASURE NAME: pIC50

[
  {
    "COMPOUND": "Fc1cc2nc(-c3ccc(Cl)cc3)n(C(COCC3CCCCC3)C3CCCCC3)c2cc1F (single isomer, unassigned; (-))",
    "pIC50": 7.22
  }
]

P: O=C(O)C1(Oc2ccc(OCC(C3CCCCC3)n3c(-c4ccc(Cl)cc4)nc4cc(F)c(F)cc43)cc2)CCC1 (single isomer, unassigned; (-)) [Example 119]
Q: O=C(O)c1cc(F)c(OCC(C2CCCCCC2)n2c(-c3ccc(Cl)cc3)nc3cc(F)c(F)cc32)c(F)c1 (single isomer, unassigned; (-)) [Example 132]
Query :: From the items above, decide which of P and Q has the lower pIC50 reading. Respond with the label that goes with your answer.
Result :: P

---

- SYSTEM TESTED: FXR ligand binding domain (GST-FXR LBD fusion protein, human FXR aa 193-473) (Homo sapiens, UniProt Q96RI1)
- Construct: fused on or other part: Glutathione-S-transferase (GST) fused N-terminally to the FXR LBD, used to capture the protein on glutathione SPA beads
- Sequence (Q96RI1 211-486 limits assumed): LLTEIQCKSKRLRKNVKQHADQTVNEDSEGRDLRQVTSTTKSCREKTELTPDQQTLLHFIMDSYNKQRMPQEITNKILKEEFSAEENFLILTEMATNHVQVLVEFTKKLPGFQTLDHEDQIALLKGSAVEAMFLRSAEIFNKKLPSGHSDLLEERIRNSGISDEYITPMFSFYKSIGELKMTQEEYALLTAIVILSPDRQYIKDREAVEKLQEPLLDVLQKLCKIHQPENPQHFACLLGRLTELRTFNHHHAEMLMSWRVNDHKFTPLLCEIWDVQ
- MEASUREMENT PROTOCOL: Radioligand binding assay (scintillation proximity, radioligand displacement)
- ASSAY CONDITIONS: 40 nM GST-FXR LBD on SPA beads, test compound 6×10^−9 M to 2.5×10^−5 M, read-out: h-IC50 Binding
MEASURE NAME: IC50 (nM)

[
  {
    "COMPOUND": "Cc1cc(-c2nnn[nH]2)cc(C)c1OCC(C1CCCCC1)n1c(-c2ccc(Cl)cc2)nc2cc(F)c(F)cc21 (single isomer, unassigned; (-)) [Example 71]",
    "UNIT STRING": "nM",
    "IC50": 60
  }
]

a: O=C(O)c1ccc(OCC(C2CCCCC2)n2c(-c3ccc(Cl)cc3)nc3ccccc32)c(F)c1 (stereo not drawn) [Example 33]
b: Cc1c(OCC(C2CCCCC2)n2c(-c3ccc(Cl)cc3)nc3cc(F)c(F)cc32)cccc1C(=O)O (stereo not drawn) [Example 17]
Query :: From the items above, decide which of a and b has the lower IC50 reading. Respond with the label that goes with your answer.
Result :: b
(b: 200 nM, a: 500 nM)

1: O=C(O)c1cc(F)c(OCC(C2CCCCC2)n2c(-c3ccc(Cl)cc3)nc3ccccc32)c(Cl)c1 (single isomer, unassigned; (+)) [Example 110]
2: O=C(O)c1ccc(OCC(C2CCCCC2)n2c(-c3ccc(Cl)cc3)nc3cc(F)c(F)cc32)nc1 (single isomer, unassigned; (+)) [Example 20]
3: O=C(O)c1c(F)cc(OCC(C2CCCCC2)n2c(-c3ccc(Cl)cc3)nc3cc(F)c(F)cc32)cc1F (stereo not drawn) [Example 42]
Query :: Order these by IC50, descending, and give the full ranking. Please list each label once, in the requested order.
Result :: 3, 1, 2
